# Tested on: c-Src;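 further: frequency after pTyr selection over input frequency; kinase dosed for 20-30% of maximal phosphorylation in three min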
# EXPERIMENT SUMMARY: phosphorylation enrichment, bacterial display (enrichment ratio); higher = better substrate or ligand; peptides without Tyr show the background

>  <CHAIN SEQUENCE>
TSEASYYKSLN [NGEF_Y288]

>  <TEST TARGET>
c-Src;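 further: frequency after pTyr selection over input frequency; kinase dosed for 20-30% of maximal phosphorylation in three min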

>  <phosphorylation enrichment>
0.49

$$$$
>  <CHAIN SEQUENCE>
VDSTEYEVASQ [SLC7A7_Y7]

>  <TEST TARGET>
c-Src;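 further: frequency after pTyr selection over input frequency; kinase dosed for 20-30% of maximal phosphorylation in three min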

>  <phosphorylation enrichment>
0.514

$$$$
>  <CHAIN SEQUENCE>
KLQKKYGPIFS [CYP17A1_Y60_YF]

>  <TEST TARGET>
c-Src;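 further: 11-residue human phosphosite peptides and single-mutation variants displayed on the E. coli surface, counted by deep sequencing, each peptide's frequency after selection divided by its frequency in the unselected input library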;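 further: frequency after pTyr selection over input frequency; kinase dosed for 20-30% of maximal phosphorylation in three min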

>  <phosphorylation enrichment>
0.489

$$$$
